molecular target: Histone acetyltransferase p300 (Homo sapiens); assay: Binding affinity to HAT p300 catalytic domain by isothermal titration calorimetry
Sequence (Q09472 whole entry, the tested form may be a part): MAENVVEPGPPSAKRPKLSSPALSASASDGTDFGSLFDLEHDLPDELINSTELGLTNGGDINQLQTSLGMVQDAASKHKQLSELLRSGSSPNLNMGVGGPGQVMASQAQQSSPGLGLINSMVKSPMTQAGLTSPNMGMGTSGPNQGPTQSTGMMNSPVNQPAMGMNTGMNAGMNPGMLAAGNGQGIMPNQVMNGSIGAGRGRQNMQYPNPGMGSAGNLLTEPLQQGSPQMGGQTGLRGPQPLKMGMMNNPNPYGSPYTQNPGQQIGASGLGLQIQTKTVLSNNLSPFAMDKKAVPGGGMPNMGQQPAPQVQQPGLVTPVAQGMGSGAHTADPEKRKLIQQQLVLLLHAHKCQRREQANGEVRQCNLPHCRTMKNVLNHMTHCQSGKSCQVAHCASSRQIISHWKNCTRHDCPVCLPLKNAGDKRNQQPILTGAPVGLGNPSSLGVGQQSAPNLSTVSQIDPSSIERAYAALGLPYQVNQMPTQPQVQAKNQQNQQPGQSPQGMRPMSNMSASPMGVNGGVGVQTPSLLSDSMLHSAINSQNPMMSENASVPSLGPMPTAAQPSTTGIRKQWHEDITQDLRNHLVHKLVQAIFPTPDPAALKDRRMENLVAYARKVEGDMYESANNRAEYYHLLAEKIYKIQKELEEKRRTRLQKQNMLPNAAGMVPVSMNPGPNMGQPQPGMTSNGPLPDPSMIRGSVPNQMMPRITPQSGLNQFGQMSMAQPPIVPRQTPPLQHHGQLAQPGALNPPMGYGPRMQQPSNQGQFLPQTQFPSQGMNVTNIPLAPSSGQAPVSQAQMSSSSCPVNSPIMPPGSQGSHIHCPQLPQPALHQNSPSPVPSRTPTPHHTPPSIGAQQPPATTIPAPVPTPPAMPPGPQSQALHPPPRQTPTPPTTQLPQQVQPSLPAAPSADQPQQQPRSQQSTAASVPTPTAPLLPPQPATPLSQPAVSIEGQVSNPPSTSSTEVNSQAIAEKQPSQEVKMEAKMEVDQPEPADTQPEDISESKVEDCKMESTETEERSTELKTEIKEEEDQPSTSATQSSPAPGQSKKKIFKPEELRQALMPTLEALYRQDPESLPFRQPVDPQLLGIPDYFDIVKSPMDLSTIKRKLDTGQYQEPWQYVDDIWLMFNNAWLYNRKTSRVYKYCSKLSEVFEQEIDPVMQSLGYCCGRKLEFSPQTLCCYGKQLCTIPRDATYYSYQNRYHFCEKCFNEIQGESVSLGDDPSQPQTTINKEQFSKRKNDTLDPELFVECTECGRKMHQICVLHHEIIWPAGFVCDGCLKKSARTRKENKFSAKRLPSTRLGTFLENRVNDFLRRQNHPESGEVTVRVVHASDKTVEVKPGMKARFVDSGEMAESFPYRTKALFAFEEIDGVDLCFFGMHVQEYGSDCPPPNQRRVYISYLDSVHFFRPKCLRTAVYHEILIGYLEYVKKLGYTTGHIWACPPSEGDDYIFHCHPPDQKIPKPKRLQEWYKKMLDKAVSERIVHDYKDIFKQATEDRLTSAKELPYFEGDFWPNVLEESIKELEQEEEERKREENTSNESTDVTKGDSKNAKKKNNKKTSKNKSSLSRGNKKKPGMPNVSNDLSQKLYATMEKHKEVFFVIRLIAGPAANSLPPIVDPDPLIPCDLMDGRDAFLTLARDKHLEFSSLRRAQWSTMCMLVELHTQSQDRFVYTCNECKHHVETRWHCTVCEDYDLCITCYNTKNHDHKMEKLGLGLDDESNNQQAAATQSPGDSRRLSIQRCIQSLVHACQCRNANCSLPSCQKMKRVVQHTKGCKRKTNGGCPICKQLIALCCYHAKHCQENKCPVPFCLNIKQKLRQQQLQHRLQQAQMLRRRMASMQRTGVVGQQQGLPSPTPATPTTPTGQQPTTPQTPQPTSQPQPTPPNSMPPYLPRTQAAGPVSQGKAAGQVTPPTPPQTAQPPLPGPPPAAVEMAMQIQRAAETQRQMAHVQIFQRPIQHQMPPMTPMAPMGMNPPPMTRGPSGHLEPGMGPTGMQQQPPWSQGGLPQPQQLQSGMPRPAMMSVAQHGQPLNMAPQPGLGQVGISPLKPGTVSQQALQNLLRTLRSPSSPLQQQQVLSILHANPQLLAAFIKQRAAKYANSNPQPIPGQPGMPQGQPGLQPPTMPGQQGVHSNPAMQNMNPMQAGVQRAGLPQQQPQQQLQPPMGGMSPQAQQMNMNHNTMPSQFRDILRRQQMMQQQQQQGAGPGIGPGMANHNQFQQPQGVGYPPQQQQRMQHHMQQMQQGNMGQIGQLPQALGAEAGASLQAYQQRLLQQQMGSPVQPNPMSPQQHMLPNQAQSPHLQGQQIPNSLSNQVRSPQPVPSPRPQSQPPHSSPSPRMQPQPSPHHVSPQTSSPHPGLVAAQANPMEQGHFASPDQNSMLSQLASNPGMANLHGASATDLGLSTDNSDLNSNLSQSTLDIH
# key: entry, value: pKd
pKd (log units): -log10 of the concentration in mol/L.

C=C(C)[C@@H](CC=C(C)C)C[C@@]12C[C@@H](CC=C(C)C)C(C)(C)[C@@](CC=C(C)C)(C(=O)C(C(=O)c3ccc(O)c(O)c3)=C1O)C2=O [GARCINOL] ... 5.18

# input for lookup
Exercise: Could you share what pKd was measured for CC(C)=CC[C@H]1C[C@@]23C[C@@H](CC=C(C)C)C(C)(C)[C@@](CC=C(C)C)(C(=O)C(C(=O)c4ccc(O)c(O)c4)=C2OC1(C)C)C3=O [CAMBOGIN] , tested on Histone acetyltransferase p300 (Homo sapiens)?
Solution: 5.23
